These entries and their values trace back to patent US10648012B2.

# System: WT yeast
# EXPERIMENTAL_PROTOCOL: 5-FUrd IC50 on WT yeast after storage of the 5-FUrd sample
# Format: cell-based
# PARTICULARS: Saccharomyces cerevisiae, 90 h, 5-FUrd sample stored at −20° C. for 90 hrs
OBSERVABLE: IC50 (µM)
Return type: number; implicit unit µM.

Query :: # input compound: O=c1[nH]c(=O)n([C@@H]2O[C@H](CO)[C@@H](O)[C@H]2O)cc1F [5-FUrd, 5-fluorouridine] ; wanted: its IC50
Result :: 46

---

# System: fui1Δ yeast
# EXPERIMENTAL_PROTOCOL: 5-FUrd cytotoxicity assay, growth (OD600) of parental fui1Δ yeast
# Assay type: cell-based
# PARTICULARS: Saccharomyces cerevisiae, 9.5 h, read-out: 5-FUrd IC50 for killing
OBSERVABLE: pIC50
Note on units: pIC50 is unitless, being -log10 of a concentration expressed in mol/L.

Query :: # value lookup — system fui1Δ yeast, readout pIC50, item O=c1[nH]c(=O)n([C@@H]2O[C@H](CO)[C@@H](O)[C@H]2O)cc1F [5-FUrd, 5-fluorouridine]
Result :: 2.19
